# experimental_details: DRUGMATRIX: Calcium Channel Type L, Benzothiazepine radioligand binding (ligand: [3H] Diltiazem)
# Assay type: cell membranes, Rattus norvegicus, Wistar, Brain, Membrane
# experimental_setup: Not Active = under 50% inhibition at 10 µM
experimental_endpoint: IC50

compound	IC50
CC(C)(Oc1ccc(CCNC(=O)c2ccc(Cl)cc2)cc1)C(=O)O [BEZAFIBRATE]	Not Active
C[C@](N)(Cc1ccc(O)cc1)C(=O)O	Not Active
CC1(C)[C@@H](O[C@H]2O[C@H](C(=O)O)[C@@H](O)[C@H](O)[C@H]2O[C@@H]2O[C@H](C(=O)O)[C@@H](O)[C@H](O)[C@H]2O)CC[C@]2(C)[C@H]3C(=O)C=C4[C@@H]5C[C@@](C)(C(=O)O)CC[C@]5(C)CC[C@@]4(C)[C@]3(C)CC[C@@H]12	Not Active
CCCC[C@@H](CC)COC(=O)c1ccccc1C(=O)OC[C@@H](CC)CCCC [BIS(2-ETHYLHEXYL)PHTHALATE]	Not Active
C=CC[C@@H]1/C=C(\C)C[C@H](C)C[C@H](OC)[C@H]2O[C@@](O)(C(=O)C(=O)N3CCCC[C@H]3C(=O)O[C@H](/C(C)=C/[C@@H]3CC[C@@H](O)[C@H](OC)C3)[C@H](C)[C@@H](O)CC1=O)[C@H](C)C[C@@H]2OC [TACROLIMUS ANHYDROUS]	Not Active

Exam item: Write down IC50 measured for item CCOC(=O)[C@H](CCc1ccccc1)N[C@@H](C)C(=O)N1[C@H](C(=O)O)C[C@@H]2CCC[C@@H]21
Marked response: Not Active

Exam item: Write down IC50 measured for item Cc1[nH]cnc1CN1CCc2c(c3ccccc3n2C)C1=O
Marked response: Not Active

Exam item: Write down IC50 measured for item CC[C@H]1OC(=O)[C@H](C)[C@@H](O[C@H]2C[C@@](C)(OC)[C@@H](O)[C@H](C)O2)[C@H](C)[C@@H](O[C@@H]2O[C@H](C)C[C@H](N(C)C)[C@H]2O)[C@](C)(O)C[C@@H](C)/C(=N\OCOCCOC)[C@H](C)[C@@H](O)[C@]1(C)O
Marked response: Not Active

Exam item: Write down IC50 measured for item COc1c(C)c2c(c(O)c1C/C=C(\C)CCC(=O)OCCN1CCOCC1)C(=O)OC2 [MYCOPHENOLATE MOFETIL]
Marked response: Not Active

Exam item: Write down IC50 measured for item CC(C)(C)NCC(O)c1cc(O)cc(O)c1 (stereo not drawn)
Marked response: Not Active

Exam item: Write down IC50 measured for item NC(=O)c1ccccc1O [SALICYLAMIDE]
Marked response: Not Active

Exam item: Write down IC50 measured for item C[C@]12Cc3c[nH]nc3C[C@@H]1CC[C@@H]1[C@@H]2CC[C@@]2(C)[C@H]1CC[C@]2(C)O
Marked response: Not Active

Exam item: Write down IC50 measured for item CN[C@@H]1[C@@H](O)[C@@H](O[C@@H]2[C@@H](O)[C@H](O[C@H]3OC(CN)=CC[C@H]3N)[C@@H](N)C[C@H]2N)OC[C@]1(C)O
Marked response: Not Active
